Biological target: T1, human PVRIG expressed on cells (human, UniProt Q6DKI7 41-326)
T1 sequence (looked up): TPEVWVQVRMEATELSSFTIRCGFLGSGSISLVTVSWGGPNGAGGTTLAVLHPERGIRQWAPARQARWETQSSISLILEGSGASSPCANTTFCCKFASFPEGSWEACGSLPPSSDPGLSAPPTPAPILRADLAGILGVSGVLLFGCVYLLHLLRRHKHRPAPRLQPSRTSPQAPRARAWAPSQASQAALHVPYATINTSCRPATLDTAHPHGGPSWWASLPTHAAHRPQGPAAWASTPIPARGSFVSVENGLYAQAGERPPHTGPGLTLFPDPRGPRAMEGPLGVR
Test: cell-based or functional assay
This listing pairs binders with measured PVRIG reporter gene cell activity EC50.

BINDER	PVRIG reporter gene cell activity EC50 (nM)
30H3 (Fc fusion, not shown: a dimerising Fc or GST) EVQLVESGGGLVQPGGSLRLSCAASGYSYSGDCMGWFRQAPGKGLDEGVATIDNAGRIKYADSVKGRFTISRDNAKNSLYLQMNSLRAEDTAVYYCAAGWTFGGQCSPADWGQGTQVTVSS	0.078
30H2 (Fc fusion, not shown: a dimerising Fc or GST) EVQLVESGGGLVQPGGSLRLSCAASGFTFSGDCMGWFRQAPGKGLDEGVATIDNAGRIKYADSVKGRFTISRDNAKNSLYLQMNSLRAEDTAVYYCAAGWTFGGQCSPADWGQGTQVTVSS	0.176
Tab5 (antibody, human IgG4 S228P, kappa, F234A L235A, V domains shown, Anti-PVRIG positive control, IgG4 S228P/F234A/L235A/K447A; also called positive antibody Tab5; CPA.7.021 variable regions on human IgG4/kappa) VH: EVQLVESGGGVVKPGGSLRLSCAASGFTFGTSSMNWVRQAPGKGLEWVAVISFDGTEIHYADSVKGRFTISRDNSKSTVFLQMNSLRPDDTALYYCAKGSGNIYFYSGMDVWGQGTTVTVSS VL: DIQMTQSPSTLSASVGDRVTITCRAGQSISGWLAWFQQKPGKAPNLLIYETSTLESGVPSRFSGSGSGTEYTLTISSLQPDDFATYYCQQYYSYPLTFGQGTKVEIKR	1.38
151H7 (Fc fusion, not shown: a dimerising Fc or GST) HVQLVESGGGLVQPGGSLRLSCVASASGFTYRPYCMAWFRQAPGKEREAVAGIDIFGGTTYADSVKGRFTASRDNAGFSLYLQMNSLRAEDTAVYYCAAGDSPDGRCPPLGQGLNYWGQGTMVTVSS	0.038
